Origin of the recorded values: the domain aggregation screens of Martell et al. (2025)

# procedure-details: soluble fraction after stress (log2 fold change); higher = more stays soluble; pooled small domains, quantitative proteomics
# test-context: stress: 50 degC
readout-type: soluble fraction (log2)
Just the number, please, no unit attached.

Supply reported soluble fraction (log2) belonging to this sequence: "HMDTDVFLMDLRGESRDYAEEVLINNNLEVKVIILPFSKRHYPGKVVEMRPSPFTKVKKGRIITLSVAGN" -3.71

Supply reported soluble fraction (log2) belonging to this sequence: "HMSELSGSQLKAIREEKHIPLEQVASATRIRLSLLEALEMDEYAELGSRTQARGFLKLYADFLGVPFEA" 0.0345

Supply reported soluble fraction (log2) belonging to this sequence: "HMTVKEYNRAVDEYSDAVWRFIRGNLRDEDRANDIVQDSFEKLWMHVTEIDYSVAKSWLFSTAYNNMIDI" -0.277

Supply reported soluble fraction (log2) belonging to this sequence: "HMGNLPPAVINARIKVSPAGRGVFVGFDKGSTSTEAKYADAIRGYLPNIEFNKDDHESVVTVPFNFR" -0.032

Supply reported soluble fraction (log2) belonging to this sequence: "HMDFRVGVWVELVQQRRSVRTQLTWVSPQHTLFLFTAKDGSTQSMTLRMRDKLLAEGNLRIVAPPSR" -2.23

Supply reported soluble fraction (log2) belonging to this sequence: "HMRGVDRPLTLPRHWRRNAGRLVKVTLANGSAVTGRVLDPGEERVTLEVSGERHEVAYADVKKALVQVEF" -0.169

Supply reported soluble fraction (log2) belonging to this sequence: "HMAAIPEQVSEEVVSAVKASGIDPGKVTKEQWTSLLKGRRTALGSSSGKLFMLSKAPVGYTLKAVNA" 0.333

Supply reported soluble fraction (log2) belonging to this sequence: "HMRISMRDQVYEIIKNRILSREYSLGEPINIVHLSKELGISNTPIREALSQLETERLITINSNQKYHVT" -0.154

Supply reported soluble fraction (log2) belonging to this sequence: "HMIAITVGSKVRVKAGATFSDGTKPFTEVYNTVYDVQLLSRNGKEARIGIGEQWTGWMYISDLYPADQ" -0.359

Supply reported soluble fraction (log2) belonging to this sequence: "HMNTDALIGKTGYVTEIVGERHGRIQFSGGEWSARTEGVSIPVGAEVRVDRIDGATAVVSAV" 0.115

Supply reported soluble fraction (log2) belonging to this sequence: "HMVTDTGAIEKVIDEVIAANPKQVQEIADQRAAGHEKPKTLGWLVGQIMKASGGKVNPAAVNEILLKKLG" 0.149

Supply reported soluble fraction (log2) belonging to this sequence: "HMEGNLVEIFEDAFGRTMSTMDIEYINQFKRTGYDDEMIVSALREAVKSNALSFRYIERVLENWAHS" -0.202

Supply reported soluble fraction (log2) belonging to this sequence: "HMQMTTPQMVPLFTDLSVDDSASIIKDLERQAVPYQIKSDGAIIMVPKDKVTRLRMKLAESGLPK" 0.25

Supply reported soluble fraction (log2) belonging to this sequence: "HMTSTEQEILIEHMVDRLPALRKKYGISQTELGEKIGLSRQTISAIERKTTPLTWTTMLAILMFFT" -1.7

Supply reported soluble fraction (log2) belonging to this sequence: "HMNQSAVMAERMKQTKNRILQTAKEIFLEQGYKRTTIRQIVERSGITSGSIYNIFSSKEEIFSALVDDL" -2.65

Supply reported soluble fraction (log2) belonging to this sequence: "HMKITAPLPGTITEIKVKVGDTVKNGDTVVVLEAMKMQNNIEAESNGTVTAIFVNKGDTVMEGDALMTI" 0.14

Supply reported soluble fraction (log2) belonging to this sequence: "HMDSLIEYENERSLRRLINENLSDYERTVWWLYYAGADAAHIAEQTGRSKRSAENAITRVRRKLRALITQS" -1.08

* * *

# procedure-details: soluble fraction after stress (log2 fold change); higher = more stays soluble; pooled small domains, quantitative proteomics
# test-context: stress: 50 degC
For each record, write down the corresponding soluble fraction (log2).
Just the number, please, no unit attached.

Supply reported soluble fraction (log2) belonging to this sequence: "HMTSKIIIGDSYSKINKLLGEPENMKKRKFLDNEYLMVLYSINKKNYRLYFKDNILFELEDI" -0.941

Supply reported soluble fraction (log2) belonging to this sequence: "HMSTTYLNEGDRITLTDSVNIRTSMSETADRVGLAYQGDVVTVIMSYAEGWTKVSWNGQTGYAKTEYL" -0.617

Supply reported soluble fraction (log2) belonging to this sequence: "HMGLNNVSDILRLDFNSFKKKFDKLPSGYKNSVVEQAALMIKSGELDSIKIKDYIEKSMGIELDI" -0.27

Supply reported soluble fraction (log2) belonging to this sequence: "HMTNKQEYAYQWLKSSIIENKIKPSTLLVERHLSEMLHISRTPVRTALMRLADEGFVVISPGRGMVVA" -2.03

Supply reported soluble fraction (log2) belonging to this sequence: "HMGPSLDAVREQIRDLIAEEDKSAPYSDLSLVAELEKRGIHISRRTIAKYRGEMGIPNSDQRRYF" 0.0495

Supply reported soluble fraction (log2) belonging to this sequence: "HMVTLQEVKQYLRIDFEEEDPLLLSLLATAKQQVMNVGRMDEAQLSEHEDTARTAILYAVSYLYENRN" -1.85

Supply reported soluble fraction (log2) belonging to this sequence: "HMKKEETEAEELEEKFTSAQIKQAYGILNDPRYKQGNYSGAVNVINKIAPGLADHPDVKNALKRANEEL" 0.0375

Supply reported soluble fraction (log2) belonging to this sequence: "HMDPFVILGISKDSSQSEILEAYKTKRAYYQEHVFDEGDQGAQAARMLGQLDDAYQQAMELSHE" -0.062

* * *

# procedure-details: soluble fraction after stress (log2 fold change); higher = more stays soluble; pooled small domains, quantitative proteomics
# test-context: stress: 50 degC
For each record, write down the corresponding soluble fraction (log2).
Just the number, please, no unit attached.

Supply reported soluble fraction (log2) belonging to this sequence: "HMSSWAEGLTERERHTLMWITKGLSNKLIARELGISDSTVKVYVKNLLRKLNVNSRLELAAWVHTHPL" -0.906

Supply reported soluble fraction (log2) belonging to this sequence: "HMRAAEPTTDAQRDRRRRIVLTAMTMLQERGYDEIQMRDVAQQAGVALGTLYRYFPSKEQLFAHVLVE" -0.599

Supply reported soluble fraction (log2) belonging to this sequence: "HMNDENIIIEEIKYFIKSNQIKEQEKLPSERNLSELFTVSRFSLRKALRHLVDTGYLYVKDKSGYYYQGD" -2.47

Supply reported soluble fraction (log2) belonging to this sequence: "HMNLGAHVYWRNHRAYGDFREYEDVGGGREALALPGSTWGTKDPRVAQALFAARLTEFQEARVGR" -1.05

Supply reported soluble fraction (log2) belonging to this sequence: "HMLVGGPDTPSKVTVSFDLGSRQAVDELTERAGAAGGRIGDIDDYPFMYQRQFDDPDGYHYSPFWMKP" -0.149

Supply reported soluble fraction (log2) belonging to this sequence: "HMSSEMATLRSIVDNKQAEKVHGMMVDMFTASAMVQVYDKVNDENQAKMREMLKTQKGFQRMADFALSKI" -0.172

Supply reported soluble fraction (log2) belonging to this sequence: "HMSKQQFLDELAARLREEGAELLVAENLNFYRSYIEEEVAKGRSEEEVLAELGNPALIARSILDAAGF" -0.153

Supply reported soluble fraction (log2) belonging to this sequence: "HMQPLGHDLTERELDVLALMVTGMNNSEIADKLVVSRSTIKYHVSNILSKLQATSRTEAVAYALQQNLVH" -0.469

Supply reported soluble fraction (log2) belonging to this sequence: "HMQQELDAFKLLITVSGVGPKAAMAVLSVLPPDRLSIAVSSGDVKSIQSAQGVGKKTAERIVLELKDKM" -0.814

Supply reported soluble fraction (log2) belonging to this sequence: "HMINIQYSYNDGKETLHNLSPEVIAEKIMDDPNGYHIVWKQGMVGWVNANDIDDIAKLLRQKK" -0.0619

Supply reported soluble fraction (log2) belonging to this sequence: "HMGFALLIAIERTGNTTYFVKLTLIKKGSDSDVLKDSFSVSQGDLVGTATYDSVIANRIREKTAAMWQKAT" -2.13

Supply reported soluble fraction (log2) belonging to this sequence: "HMSLTEESAKSLIGLTENEAVKVAAERGWTVRVAMRDGEAFMLTQDYSENRVNLTVMKTLVTAVTI" -0.273

Supply reported soluble fraction (log2) belonging to this sequence: "HMTDGYAMRLERLNSLEEYVLNKGTVSLEDLAERFGVSINTIRRDLNELISRGQIKKVYGGVSSLHD" 0.0904

Supply reported soluble fraction (log2) belonging to this sequence: "HMKPEQIELTFSGTTAMRLDKFLAENQPGLSRAKLQAIISSGSVEVNGKVITKQAFKLDPGDLVKALIPE" 0.0295

Supply reported soluble fraction (log2) belonging to this sequence: "HMGGEEKALLFGDVDIREAGEITQRLEQAEIPYELRGDGSSIFVPRSRVMEARMMISADGLL" -0.0992

Supply reported soluble fraction (log2) belonging to this sequence: "HMSINIDEEKKILGPNADQIIKGITTWGQGLVSKGIWSDADFEEFKIFAATGNGINALNKVRKYY" -0.255

Supply reported soluble fraction (log2) belonging to this sequence: "HMQAQQYYMLLMNKATSALKIEALGANSNKAHQSFGTKTAGGSAVYWGILFNSNGKIYKIVG" -2.96

Supply reported soluble fraction (log2) belonging to this sequence: "HMNNILNYTIAELMEILKIDDLETENVINSSNNLINKSINENNFPLAEFYEDVKNNLIEFIETFDS" -0.632

Supply reported soluble fraction (log2) belonging to this sequence: "HMQVPWYQRLKEKRLEYGVSQNKLATHIGISRQYMSEIETGKVTPSDSLQATLFDILEQFNPDA" -0.363

Supply reported soluble fraction (log2) belonging to this sequence: "HMSTINGIEKYLSSGLIPYIGPKTAKRIVEKFGLDTLEIIQYNPERLKEIEGIGDKKLKKIVEAFEEQG" -0.102

Supply reported soluble fraction (log2) belonging to this sequence: "HMPKLTKEEIQFIDNYLKNSGVEYIDTRAEVVDHVASEIESRLSANNTTNFYEEFKVYMVQHKETLLK" -0.49

Supply reported soluble fraction (log2) belonging to this sequence: "HMAPQVKIPNLVDVSQRQAEAILNSYGLKVGHLIYKPDLAKDAVLGFMFNGRSLKAGDELAKGSSIDLILG" -0.097

Supply reported soluble fraction (log2) belonging to this sequence: "HMEISTEVPLRGGTISEEALEALNRLPGVTASNIDGKSISVDVADNAELRVSDINQVLAVHSPDTRV" 0.209

Supply reported soluble fraction (log2) belonging to this sequence: "HMVMATPHNTAKAGDIAKTVIMPGDPLRAKYIADNYLDNAVQFNVVRNIYGYTGVYRGTDISVMASGM" 0.128

Supply reported soluble fraction (log2) belonging to this sequence: "HMTKLPLLVELSRIIPTDTWVKKIKFSLGSVEFVGISKSASRLLPIVENSSYFHDTKFIGTIVT" -0.486

Supply reported soluble fraction (log2) belonging to this sequence: "HMEFTFTLPRGYIDDTGMIHREGTMRLANAADEILPLKDPRVQQNPGYLTIILLARVITKLGSL" 0.277

Supply reported soluble fraction (log2) belonging to this sequence: "HMFDLDIEQIANDLKHGVMPNLYGLSLQDALYLLEAKGIRVKVAGSGSVVNQSIKTGAYVGSGSVLKLEL" -1.26

Supply reported soluble fraction (log2) belonging to this sequence: "HMRPDDPYLVIGASREMGDEELKRHYRRLVAETHPDRGIARGLPAEAIAIATRRLAAINAAWDAIERERGL" 0.035

Supply reported soluble fraction (log2) belonging to this sequence: "HMTIELAEGQHFLQISKSGAPMGNVVRDLIIQTLKITNGNQIKAAKILGISRAKLRYRIEQLGINITGKNI" -2.67

Supply reported soluble fraction (log2) belonging to this sequence: "HMAEELELFHRLISVTGVGPKGALGFLSQLKPQEIILAILSDDVKTLSKAPGVGRKTAQRVILELKDKF" -1.14

Supply reported soluble fraction (log2) belonging to this sequence: "HMRRFEFSDGSSNKFWQITRDGTSLTVTFGKIGTAGQTQLKELATEAAAIAEHDKLVKEKTKKGYAEVG" -0.206

Supply reported soluble fraction (log2) belonging to this sequence: "HMKNDIQLKHDVEEELQWDPAVDASRFAVQAKDGVVTLSGGVDTFADKHAAEEAIRRVAGVTALVIHVDV" -0.107

Supply reported soluble fraction (log2) belonging to this sequence: "HMNSRTLAYSDFIRKVDKGEVSAVVIDGEQVQVQTKDGQTFVTIQPQSEQMNDKLVEQLIAKDISVKAERQ" 0.158
